SYSTEM_UNDER_TEST: C-X-C chemokine receptor type 6 (Homo sapiens) (UniProt O00574)
Sequence (O00574 whole entry, looked up): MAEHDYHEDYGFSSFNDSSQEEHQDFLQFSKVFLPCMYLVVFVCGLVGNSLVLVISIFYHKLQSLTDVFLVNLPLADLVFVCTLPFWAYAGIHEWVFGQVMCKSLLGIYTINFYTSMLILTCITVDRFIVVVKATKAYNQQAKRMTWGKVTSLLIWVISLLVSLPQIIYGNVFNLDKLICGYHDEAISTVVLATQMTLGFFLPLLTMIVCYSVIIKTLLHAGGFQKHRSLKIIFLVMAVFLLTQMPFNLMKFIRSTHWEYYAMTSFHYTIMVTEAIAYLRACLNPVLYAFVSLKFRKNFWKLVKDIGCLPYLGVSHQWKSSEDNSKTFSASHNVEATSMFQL
EXPERIMENT_NOTES: CXCR6 and CXCR5 receptor antagonist panel, profiling panel, selectivity assay for CXCR6 antagonist project, cell-based, CHO-K1 PathHunter beta-arrestin, luminescence, set 4 (AID 651919)
REPORTED_CONDITIONS: run 2, at 79 µM (top of the series)
Would you mind labelling by inhibition? At or over 30% is Criterion met, under is Criterion not met.

Prompt: Could you tell me if the measured inhibition of COc1ccc(NC(=O)CN2C3CCCC2CC(NC(=O)c2cc(OC)c(OC)c(OC)c2)C3)cc1 (centres undefined) reaches 30% or more?
Completion: Criterion met

Prompt: Could you tell me if the measured inhibition of COc1cc(OC)cc(C(=O)NC2CC3CCCC(C2)N3CC(=O)Nc2ccccc2)c1 (centres undefined) reaches 30% or more?
Completion: Criterion not met

Prompt: Could you tell me if the measured inhibition of COc1cccc(C(=O)NC2CC3CCCC(C2)N3CC(=O)Nc2ccc(F)cc2)c1 (centres undefined) reaches 30% or more?
Completion: Criterion not met

Prompt: Could you tell me if the measured inhibition of COc1ccc(C(=O)NC2CC3CCCC(C2)N3CC(=O)Nc2ccc(F)cc2)cc1 (centres undefined) reaches 30% or more?
Completion: Criterion not met

Prompt: Could you tell me if the measured inhibition of COc1cccc(C(=O)NC2CC3CCCC(C2)N3CC(=O)Nc2ccccc2)c1 (centres undefined) reaches 30% or more?
Completion: Criterion not met

Prompt: Could you tell me if the measured inhibition of COc1ccc(C(=O)NC2CC3CCCC(C2)N3CC(=O)Nc2ccc(C)cc2)cc1 (centres undefined) reaches 30% or more?
Completion: Criterion not met

Prompt: Could you tell me if the measured inhibition of COc1ccccc1NC(=O)CN1C2CCCC1CC(NC(=O)c1cc(OC)c(OC)c(OC)c1)C2 (centres undefined) reaches 30% or more?
Completion: Criterion met

Prompt: Could you tell me if the measured inhibition of COc1ccc(NC(=O)CN2C3CCCC2CC(NC(=O)c2ccc4c(c2)OCO4)C3)cc1 (centres undefined) reaches 30% or more?
Completion: Criterion not met
